Biological target: SHP2 protein (Homo sapiens)
Sequence (Q06124 whole entry): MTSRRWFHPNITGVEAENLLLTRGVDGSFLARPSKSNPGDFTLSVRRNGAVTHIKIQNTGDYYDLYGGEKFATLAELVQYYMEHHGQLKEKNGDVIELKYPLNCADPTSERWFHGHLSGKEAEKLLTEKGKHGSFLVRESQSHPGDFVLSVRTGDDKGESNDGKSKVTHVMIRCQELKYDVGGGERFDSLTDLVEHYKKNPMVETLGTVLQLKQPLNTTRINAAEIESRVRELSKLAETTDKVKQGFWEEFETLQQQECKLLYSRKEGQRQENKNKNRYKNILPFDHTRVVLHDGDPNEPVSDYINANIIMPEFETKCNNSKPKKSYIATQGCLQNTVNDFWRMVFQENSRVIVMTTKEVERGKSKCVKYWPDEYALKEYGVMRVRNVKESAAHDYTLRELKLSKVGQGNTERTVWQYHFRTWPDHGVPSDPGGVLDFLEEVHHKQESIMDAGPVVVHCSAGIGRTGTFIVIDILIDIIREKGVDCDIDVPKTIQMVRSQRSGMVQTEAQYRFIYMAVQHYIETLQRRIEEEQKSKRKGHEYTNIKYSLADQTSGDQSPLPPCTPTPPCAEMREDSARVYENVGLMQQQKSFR
Assay: Degradation activity on SHP2 protein in MIA Paca-2 cells (Western blot, DC50)
Type: cell-based
Set-up: endogenous in cells; host or cells: MIA Paca-2 cells
Details: read-out: Degradation activity for differenct cell lines MIA Paca-2 (DC50)
OBSERVATION_TYPE: DC50

[[record]]
compound = "C[C@H]1CN(c2ccc(C(=O)NCc3ccc4c(c3)CN(C3CCC(=O)NC3=O)C4=O)nn2)CCN1CCCCCCCCC(=O)Nc1cccc(Sc2cnc(N3CCC(C)(N)CC3)cn2)c1 (stereo partly drawn)"
test_system = "SHP2 protein (Homo sapiens)"
reported_value = "< 100 nM"

[[record]]
compound = "C[C@@H]1OCC2(CCN(c3cnc(Sc4cccc(NC(=O)c5ccc(N6CCC(N7CCN(c8ccc(C(=O)NCc9ccc%10c(c9)CN(C9CCC(=O)NC9=O)C%10=O)cc8F)CC7)CC6)cc5)c4)cn3)CC2)[C@@H]1N (stereo partly drawn)"
test_system = "SHP2 protein (Homo sapiens)"
reported_value = "> 1000 nM"

[[record]]
compound = "C[C@@H]1OCC2(CCN(c3cnc(Sc4cccc(NC(=O)c5ccc(N6CCC(N7CCN(c8ccc9c(c8)C(=O)N(C8CCC(=O)NC8=O)C9=O)CC7)CC6)c(F)c5)c4)cn3)CC2)[C@@H]1N (stereo partly drawn)"
test_system = "SHP2 protein (Homo sapiens)"
reported_value = "> 1000 nM"

[[record]]
compound = "CC1(N)CCN(c2cnc(Sc3cccc(NC(=O)c4ccc(N5CCC(N6CC=C(c7ccc(C(=O)Nc8ccc9c(c8)CN(C8CCC(=O)NC8=O)C9=O)nn7)CC6)CC5)cc4)c3)cn2)CC1 (stereo not drawn)"
test_system = "SHP2 protein (Homo sapiens)"
reported_value = "< 100 nM"

[[record]]
compound = "CC1(N)CCN(c2cnc(-c3cccc(NC(=O)c4ccc(N5CCC(N6CC=C(c7ccc(C(=O)NCc8ccc9c(c8)CN(C8CCC(=O)NC8=O)C9=O)nn7)CC6)CC5)cc4)c3)cn2)CC1 (stereo not drawn)"
test_system = "SHP2 protein (Homo sapiens)"
reported_value = "> 1000 nM"

[[record]]
compound = "C[C@@H]1OCC2(CCN(c3cnc(Sc4cccc(NC(=O)c5ccc(N6CCC(N7CC=C(c8cnc(C(=O)NCc9ccc%10c(c9)CN(C9CCC(=O)NC9=O)C%10=O)c(F)c8)CC7)CC6)c(F)c5)c4)cn3)CC2)[C@@H]1N (stereo partly drawn)"
test_system = "SHP2 protein (Homo sapiens)"
reported_value = "< 100 nM"

[[record]]
compound = "CC1(N)CCN(c2cnc(Sc3cccc(NC(=O)C4CC5(C4)CC(N4CC=C(c6ccc(C(=O)NCc7ccc8c(c7)CN(C7CCC(=O)NC7=O)C8=O)nn6)CC4)C5)c3)cn2)CC1 (stereo not drawn)"
test_system = "SHP2 protein (Homo sapiens)"
reported_value = "> 1000 nM"

[[record]]
compound = "C[C@@H]1OCC2(CCN(c3cnc(Sc4cccc(NC(=O)CCN5CCN(c6ccc(C(=O)NCc7ccc8c(c7)CN(C7CCC(=O)NC7=O)C8=O)nn6)CC5)c4)cn3)CC2)[C@@H]1N (stereo partly drawn)"
test_system = "SHP2 protein (Homo sapiens)"
reported_value = "> 1000 nM"

[[record]]
compound = "CC1(N)CCN(c2cnc(Sc3cccc(NC(=O)C4CC45CCC(N4CC=C(c6ccc(C(=O)NCc7ccc8c(c7)CN(C7CCC(=O)NC7=O)C8=O)nn6)CC4)CC5)c3)cn2)CC1 (single isomer, unassigned) [Compound 319]"
test_system = "SHP2 protein (Homo sapiens)"
reported_value = "> 1000 nM"

